The reported measurements were obtained from the supplement of paper PMC11196671.

Assay: BHET released, HPLC; higher = more BHET released; extreme values may be limits of the assay
Details: PET substrate: aFilm; 70 °C; pH 6.5; 24 h
quantity: BHET released (mM)
Dear colleague, please return just the value in mM, with no unit written.

Reference set (2 entries):
| biosequence | readout.units | BHET released |
| --- | --- | --- |
| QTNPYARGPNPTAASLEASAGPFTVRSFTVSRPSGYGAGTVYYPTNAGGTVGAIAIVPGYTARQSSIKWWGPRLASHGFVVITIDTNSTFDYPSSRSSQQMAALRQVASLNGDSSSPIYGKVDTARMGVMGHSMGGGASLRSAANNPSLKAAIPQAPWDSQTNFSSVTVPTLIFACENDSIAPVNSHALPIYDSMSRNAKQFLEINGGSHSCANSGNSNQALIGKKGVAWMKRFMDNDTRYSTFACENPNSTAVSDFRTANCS [DuraPETase] | mM | 0 |
| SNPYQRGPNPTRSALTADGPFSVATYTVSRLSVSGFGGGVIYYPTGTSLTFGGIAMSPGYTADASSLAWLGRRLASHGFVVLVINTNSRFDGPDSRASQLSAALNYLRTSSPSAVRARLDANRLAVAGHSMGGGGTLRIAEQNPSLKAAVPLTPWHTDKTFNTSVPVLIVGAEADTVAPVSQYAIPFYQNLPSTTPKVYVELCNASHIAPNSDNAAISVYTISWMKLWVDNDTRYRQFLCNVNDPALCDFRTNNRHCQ [LCC-A2] | mM | 0 |

Moving on to another sequence below.
Record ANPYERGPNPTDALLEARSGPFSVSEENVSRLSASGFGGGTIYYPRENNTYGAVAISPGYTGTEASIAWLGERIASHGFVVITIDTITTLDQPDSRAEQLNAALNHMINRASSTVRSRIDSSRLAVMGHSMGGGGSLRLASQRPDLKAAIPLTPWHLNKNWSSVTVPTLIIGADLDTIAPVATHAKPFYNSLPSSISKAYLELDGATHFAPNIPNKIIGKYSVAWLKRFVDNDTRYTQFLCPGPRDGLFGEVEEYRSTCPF [TfCut2] . Reported BHET released: 0
